Tested on: IP10 level in PBMCs stimulated with CpG Type A
PROTOCOL_TEXT: PBMC IP-10 Assay
Assay type: cell-based
CONDITION_DETAILS: CpG Type A 2.5 μM
The class of a record is decided solely by its measured EC50; consult low interval = under 0.9 µM, middle interval = from 0.9 µM up to 3 µM, high interval = 3 µM and over

query: Given "COc1ccc(C[C@H](NC(=O)[C@H](C)NC(=O)c2cc(C)on2)C(=O)N[C@@H](Cc2ccccc2)C(=O)C(=O)NCc2ccccc2)cc1" , name the class its EC50 places it in.
result: high interval

query: Given "COC[C@H](NC(=O)C1Cc2ccccc2C1)C(=O)N[C@@H](Cc1ccc(OC)cc1)C(=O)N[C@@H](Cc1ccccc1)C(=O)C(=O)NCc1ccccc1" , name the class its EC50 places it in.
result: low interval

query: Given "CCCC[C@H](NC(=O)[C@H](Cc1c[nH]c2ccccc12)NC(=O)[C@H](C)NC(=O)C1=C(C)c2ccccc2C1)C(=O)C(=O)N[C@@H](C)c1ccccc1" , name the class its EC50 places it in.
result: high interval

query: Given "COc1ccc(C[C@H](NC(=O)C2(NC(=O)OCc3ccccc3)CC2)C(=O)N[C@@H](Cc2ccccc2)C(=O)C(=O)NCc2ccccc2)cc1" , name the class its EC50 places it in.
result: middle interval

query: Given "CC(C)C[C@H](NC(=O)[C@H](C)NC(=O)c1ccnn1C)C(=O)N[C@@H](Cc1ccccc1)C(=O)C(=O)NCc1ccccc1" , name the class its EC50 places it in.
result: high interval

----------
SUBJECT_OF_TEST: β1c (Homo sapiens, UniProt P28072+Q99436)
Construct: protease activity associated with the proteasome complex in cultured cells; endogenous in cells
PROTOCOL_TEXT: Cell-Based Proteasome Activity/Selectivity Assay (Ramos cells), substrate (LLE)2 Rh110
CONDITION_DETAILS: highest concentration tested 20 μM
Each record is given satisfied if its reported IC50 is strictly below 8 µM. Records at or above 8 µM are given not satisfied.

Reference set, count: 5
- COMPOUND: "C[C@H](NC(=O)OCc1ccccc1)C(=O)N[C@@H](Cc1ccncc1)C(=O)N[C@@H](Cc1ccccc1)C(=O)C(=O)NCc1ccccc1 [Example 58]"
  CLASS_ASSIGNMENT: "not satisfied"
- COMPOUND: "CC(C)C[C@H](NC(=O)[C@H](C)NC(=O)OCc1ccccc1)C(=O)N[C@@H](Cc1ccccc1)C(=O)C(=O)NCc1ccccc1 [Example 36]"
  CLASS_ASSIGNMENT: "not satisfied"
- COMPOUND: "COC[C@H](NC(=O)C1Cc2ccccc2C1)C(=O)N[C@@H](Cc1ccc(OC)cc1)C(=O)N[C@@H](Cc1ccccc1)C(=O)C(=O)NCc1ccccc1 [Example 23]"
  CLASS_ASSIGNMENT: "satisfied"
- COMPOUND: "CCCC[C@H](NC(=O)[C@H](Cc1c[nH]c2ccccc12)NC(=O)[C@H](C)NC(=O)c1ccnn1C)C(=O)C(=O)NCc1ccccc1 [Example 13]"
  CLASS_ASSIGNMENT: "not satisfied"
- COMPOUND: "C[C@H](NC(=O)OCc1ccccc1)C(=O)NC(CC1CCOCC1)C(=O)N[C@@H](Cc1ccccc1)C(=O)C(=O)NCc1ccccc1 (some centres unmarked) [Example 56]"
  CLASS_ASSIGNMENT: "not satisfied"

query: Please let me know if CCCC[C@H](NC(=O)[C@H](Cc1c[nH]c2ccccc12)NC(=O)[C@H](C)NC(=O)c1cc(C)on1)C(=O)C(=O)NCc1ccccc1 [Example 4] shows IC50 below 8 µM.
result: satisfied

query: Please let me know if CCCC[C@H](NC(=O)[C@H](Cc1c[nH]c2ccccc12)NC(=O)[C@H](C)NC(=O)C1Cc2ccccc2C1)C(=O)C(=O)NCc1ccccc1 [Example 11] shows IC50 below 8 µM.
result: satisfied

query: Please let me know if CCn1nccc1C(=O)N[C@@H](C)C(=O)N[C@@H](Cc1ccccc1)C(=O)N[C@@H](Cc1ccccc1)C(=O)C(=O)NCc1ccccc1 [Example 54] shows IC50 below 8 µM.
result: not satisfied

query: Please let me know if CCCC[C@H](NC(=O)[C@H](CC(C)C)NC(=O)[C@@H](NC(=O)[C@H](Cc1ccccc1C)NC(C)=O)C(C)(C)C)C(=O)C(=O)NCc1ccccc1 [Example 1] shows IC50 below 8 µM.
result: satisfied

query: Please let me know if COc1ccc(C[C@H](NC(=O)[C@H](C)NC(=O)C2Cc3ccccc3C2)C(=O)NC2(C(=O)C(=O)NCc3ccccc3)Cc3ccccc3C2)cc1 [Example 59] shows IC50 below 8 µM.
result: not satisfied
